# Method: passive permeability, PAMPA, ADME assay (AID 1508612)
# Recorded conditions: pH 7.4, 30.0 min, 50.0 µM
Could you please report measured Papp for the items listed next?
Give bare numbers, in ×10⁻⁶ cm/s.

Examples from the recorded data:
-- ask Give its Papp value. Item: CN1CCN(C(=O)c2ccc3cc(CCNc4ncnc5ccc(C#N)cc45)ccc3c2)CC1
-- reply 545

-- ask Give its Papp value. Item: COCC(C)Nc1ncnc2c1cnn2-c1ccc(C)c(C)c1 (stereo not given)
-- reply 690

-- ask Give its Papp value. Item: O=C(NC1CCCc2c1[nH]c1c(Cl)cccc21)c1ccc2c(c1)OCO2 (stereo not given)
-- reply 51

-- ask Give its Papp value. Item: O=C(Nc1nc(-c2ccccc2)cs1)c1ccncc1NS(=O)(=O)c1cccnc1
-- reply 50.8

-- ask Give its Papp value. Item: COc1ccc(-c2cnc(N3CCC(C(N)=O)CC3)s2)cc1OC
-- reply 336

-- ask Give its Papp value. Item: Cc1noc(C)c1-c1csc(N2CCC(C(N)=O)CC2)n1
-- reply 58.9

***
-- ask Give its Papp value. Item: CC[C@H]1CN(C)[C@H]2Cc3c([nH]c4ccccc34)C(=O)C[C@H]1[C@H]2C(=O)OC
-- reply 490
